Origin of the recorded values: patent US8580803B2

# Measurement target: AKT1 (Homo sapiens)
# Sequence (P31749 whole entry): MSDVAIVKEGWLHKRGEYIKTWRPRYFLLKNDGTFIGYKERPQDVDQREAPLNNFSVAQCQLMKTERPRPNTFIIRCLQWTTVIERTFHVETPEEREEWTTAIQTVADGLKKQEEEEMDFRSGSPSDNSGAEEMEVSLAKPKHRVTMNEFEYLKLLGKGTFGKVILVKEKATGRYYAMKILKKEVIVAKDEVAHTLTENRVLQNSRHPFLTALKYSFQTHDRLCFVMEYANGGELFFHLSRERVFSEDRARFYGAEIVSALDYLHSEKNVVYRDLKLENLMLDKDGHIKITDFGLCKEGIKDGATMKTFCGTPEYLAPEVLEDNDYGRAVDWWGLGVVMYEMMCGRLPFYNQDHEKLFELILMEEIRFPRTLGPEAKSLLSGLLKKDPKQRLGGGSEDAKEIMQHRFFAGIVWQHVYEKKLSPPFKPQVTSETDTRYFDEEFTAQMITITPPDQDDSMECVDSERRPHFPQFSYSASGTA
Measure: pIC50
API: returns pIC50 as number; meaning -log10 of concentration in mol/L.

O=C(Nc1ccccc1)c1cccc(Nc2ncnc3[nH]cc(C(=O)c4ccccc4)c23)c1 [drawing 239] ... 5.85
CN(C)CCCNC(=O)c1cccc(Nc2ncnc3[nH]cc(C(=O)c4ccccc4)c23)c1 ... 6.17
O=C(NCCCN1CCCC1)c1cccc(Nc2ncnc3[nH]cc(C(=O)c4ccccc4)c23)c1 ... 6.05
CC(=O)Nc1cccc(Nc2ncnc3[nH]cc(C(=O)c4ccccc4)c23)c1 ... 5.66

Next up:
Task: Lab request: please report pIC50 under test system AKT1 (Homo sapiens) for CC(=O)Nc1cccc(Nc2ncnc3c2c(C(=O)c2ccccc2)cn3C)c1 [drawing 273]
Result: 5.60

====

# Measurement target: AKT1 (Homo sapiens)
Listed next: entries and their corresponding IC50.
Give the value in µM but do not write µM after it.

// below: answered molecules
Nc1ccc(Nc2ncnc3[nH]cc(C(=O)c4ccccc4)c23)cc1 ... 2.57
O=C(O)c1cccc(Nc2ncnc3[nH]cc(C(=O)c4ccccc4)c23)c1 ... 3
Cn1cc(CC(=O)Nc2cccc(Nc3ncnc4[nH]cc(C(=O)c5ccccc5)c34)c2)c2ccccc21 ... 3.09

Task: Lab request: please report IC50 under test system AKT1 (Homo sapiens) for CC(=O)NCCC(=O)Nc1cccc(Nc2ncnc3[nH]cc(C(=O)c4ccccc4)c23)c1
Result: 0.264

Task: Lab request: please report IC50 under test system AKT1 (Homo sapiens) for NCc1cccc(Nc2ncnc3[nH]cc(C(=O)c4ccccc4)c23)c1 [drawing 278]
Result: 0.186

Task: Lab request: please report IC50 under test system AKT1 (Homo sapiens) for Nc1cccc(Nc2ncnc3[nH]cc(C(=O)c4ccccc4)c23)c1 [drawing 248]
Result: 1.25

Task: Lab request: please report IC50 under test system AKT1 (Homo sapiens) for CC(=O)NCC(=O)Nc1cccc(Nc2ncnc3[nH]cc(C(=O)c4ccccc4)c23)c1
Result: 0.0949

Task: Lab request: please report IC50 under test system AKT1 (Homo sapiens) for O=C(NCCCCN1CCCC1)c1cccc(Nc2ncnc3[nH]cc(C(=O)c4ccccc4)c23)c1
Result: 0.676

Task: Lab request: please report IC50 under test system AKT1 (Homo sapiens) for O=C(c1ccccc1)c1c[nH]c2ncnc(Nc3cccc(NC(=O)C4CCCC4)c3)c12
Result: 7.01

====

Listed next: entries and their corresponding pIC50.
# Measurement target: ACK1 (110-489) (Homo sapiens)
# Construct: ACK1 110-489 (12.5 μl) were added to each well
# Sequence (Q07912 110-489, species assumed): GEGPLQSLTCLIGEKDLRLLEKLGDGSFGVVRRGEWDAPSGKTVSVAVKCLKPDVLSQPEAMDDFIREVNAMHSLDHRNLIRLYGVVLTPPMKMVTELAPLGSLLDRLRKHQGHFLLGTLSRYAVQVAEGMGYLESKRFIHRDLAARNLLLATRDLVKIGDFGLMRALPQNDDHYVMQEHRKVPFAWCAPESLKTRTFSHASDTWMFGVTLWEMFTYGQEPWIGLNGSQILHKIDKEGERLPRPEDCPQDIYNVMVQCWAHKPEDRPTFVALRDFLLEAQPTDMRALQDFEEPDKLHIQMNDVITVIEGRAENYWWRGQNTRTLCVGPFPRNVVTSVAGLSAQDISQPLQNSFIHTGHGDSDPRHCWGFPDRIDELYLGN
# Protocol description: ACK1 Activity Assay (AlphaScreen, PYK2-derived peptide)
# Assay type: biochemical
# Protocol conditions: Average of ACK1(110-489), IC50, AlphaScreen (Pyk2); read-out: ACK1 (110-489) IC50
API: returns pIC50 as number; meaning -log10 of concentration in mol/L.

// below: answered compounds
O=C(c1ccccc1)c1c[nH]c2ncnc(Nc3cccc(CCO)c3)c12 [drawing 259] ... 5.29
CN(C)CCCC(=O)Nc1ccc(Nc2ncnc3[nH]cc(C(=O)c4ccccc4)c23)cc1 ... 5.59
CC(=O)Nc1ccc(Nc2ncnc3[nH]cc(C(=O)c4ccccc4)c23)cc1 [drawing 241] ... 5.84

Task: Item under review: CN(C)CCC(=O)Nc1ccc(Nc2ncnc3[nH]cc(C(=O)c4ccccc4)c23)cc1 . Reported pIC50?
Result: 6.38

Task: Item under review: CN(C)CC(=O)Nc1ccc(Nc2ncnc3[nH]cc(C(=O)c4ccccc4)c23)cc1 . Reported pIC50?
Result: 6.62

Task: Item under review: CCNC(=O)Nc1cccc(Nc2ncnc3[nH]cc(C(=O)c4ccccc4)c23)c1 [drawing 275] . Reported pIC50?
Result: 5.74

Task: Item under review: COCCCC(=O)Nc1ccc(Nc2ncnc3[nH]cc(C(=O)c4ccccc4)c23)cc1 . Reported pIC50?
Result: 5.99

Task: Item under review: NC(=O)CCC(=O)Nc1ccc(Nc2ncnc3[nH]cc(C(=O)c4ccccc4)c23)cc1 . Reported pIC50?
Result: 6.19

Task: Item under review: O=C(Nc1ccc(N2CCCCC2)cc1)c1cccc(Nc2ncnc3[nH]cc(C(=O)c4ccccc4)c23)c1 . Reported pIC50?
Result: 4.50

Task: Item under review: O=C(Nc1ccc(Nc2ncnc3[nH]cc(C(=O)c4ccccc4)c23)cc1)c1ccc(CN2CCOCC2)cc1 . Reported pIC50?
Result: 4.96

Task: Item under review: NCc1ccc(Nc2ncnc3[nH]cc(C(=O)c4ccccc4)c23)cc1 [drawing 258] . Reported pIC50?
Result: 6.35

Task: Item under review: CC(C)C(=O)Nc1ccc(Nc2ncnc3[nH]cc(C(=O)c4ccccc4)c23)cc1 . Reported pIC50?
Result: 5.32

Task: Item under review: CCCC(=O)Nc1ccc(Nc2ncnc3[nH]cc(C(=O)c4ccccc4)c23)cc1 . Reported pIC50?
Result: 5.42

Task: Item under review: CNC(=O)c1cccc(Nc2ncnc3[nH]cc(C(=O)c4cccc(F)c4)c23)c1 [drawing 244] . Reported pIC50?
Result: 6.04

Task: Item under review: CC(=O)Nc1cccc(Nc2ncnc3[nH]cc(C(=O)c4cccc(F)c4)c23)c1 [drawing 245] . Reported pIC50?
Result: 5.64

Task: Item under review: O=C(c1ccccc1)c1c[nH]c2ncnc(Nc3ccc(NC(=O)C4CCN(c5ccncc5)CC4)cc3)c12 . Reported pIC50?
Result: 5.90

Task: Item under review: O=C(Nc1ccc(Nc2ncnc3[nH]cc(C(=O)c4ccccc4)c23)cc1)c1ccncc1Cl . Reported pIC50?
Result: 4.54

Task: Item under review: O=C(c1ccccc1)c1c[nH]c2ncnc(Nc3ccc4cc[nH]c4c3)c12 . Reported pIC50?
Result: 4.21
